Tested on: H-ras farnesylation in H-ras (61L) transformed NIH3T3 fibroblasts
Experiment: Inhibition of H-ras farnesylation in whole cells (Western blot)
Type: cell-based, mouse
Conditions: Mus musculus, NIH3T3, 24 h, Table 2
experimentalReadout: IC50 (nM)
Just the number in nM, nothing appended.

Request: Tell me the measured IC50 of COC(=O)[C@H](CCSC)NC(=O)c1cc(C/C=C/C(N)CS)ccc1-c1ccsc1 (some centres unmarked) [PM192] , please.
Result: 230

Request: May I ask what IC50 has been recorded for CSCC[C@H](NCc1cc(C/C=C/C(N)CS)ccc1-c1ccccc1)C(=O)O (some centres unmarked) [PM121] ?
Result: 23400

Request: Any idea what its IC50 is? The compound is CSCC[C@H](NC(=O)C(/C=C/[C@@H](/C=C/C(N)CS)C(C)C)C(C)C)C(=O)N1CCOCC1 (some centres unmarked) [PD032]
Result: 1950

Request: Please give the measured IC50 for this compound: CC(C)C(/C=C/[C@@H](/C=C/C(N)CS)C(C)C)C(=O)N[C@H]1CCOC1=O (some centres unmarked) [PD092]
Result: 780

Request: I am curious: what IC50 value has been reported for CCc1ccc(C/C=C/C(N)CS)cc1C(=O)N[C@@H](CCSC)C(=O)O (some centres unmarked) [PM062] ?
Result: 360

Request: Sample COC(=O)[C@H](CCSC)NC(=O)C(Cc1cccs1)N(C)C[C@@H](/C=C/C(N)CS)C(C)C (some centres unmarked) [PA131] — what was its IC50?
Result: 39

Request: State the recorded IC50 for this entry: CC(C)[C@@H](/C=C\C(Cc1ccccc1)C(=O)NC(CCC(N)=O)C(=O)O)/C=C/C(N)CS (some centres unmarked) [PD301]
Result: 4500

----------
Biological target: GGTase
Assay: Inhibition of GGTase-mediated prenylation (in vitro prenylation assay)
Conditions: Table 1; partially purified GGTase, 5 μM recombinant H-ras (61L, CAIL), 1 μM [3H] geranylgeranyl diphosphate
Classification by IC50 | ranges: bin A = under 800 nM, bin B = from 800 nM up to 2000 nM, bin C = 2000 nM and over

Request: State the class of the compound shown: CSCC[C@H](NC(=O)C(/C=C/C(/C=C/CCS)C(C)C)Cc1ccccc1)C(=O)O (stereo partly shown) [PD162]
Result: bin C

Request: Lab note: sort COC(=O)[C@H](CCS(C)(=O)=O)NC(=O)C(/C=C/[C@@H](/C=C/C(N)CS)C(C)C)C(C)C (stereo partly shown) into the matching IC50 band.
Result: bin C

Request: Band assignment needed for CSCC[C@H](NCc1cc(C/C=C/C(N)CS)ccc1-c1ccccc1)C(=O)O (stereo partly shown) please.
Result: bin B

Request: Into which category would you place CSCC[C@H](NC(=O)c1cc(C/C=C/C(N)CS)ccc1-c1cccc2ccccc12)C(=O)O (stereo partly shown) ?
Result: bin A

Request: Record COC(=O)[C@H](CCS(C)(=O)=O)NC(=O)c1cc(C/C=C/C(N)CS)ccc1-c1ccsc1 (stereo partly shown) — which class?
Result: bin C

Request: Could you tell me which band CSCC[C@H](NC(=O)c1cc(C/C=C/C(N)CS)ccc1-c1ccccc1)C(N)=O (stereo partly shown) belongs to?
Result: bin B

Request: Just checking, what class would you give NC(=O)CC[C@H](NC(=O)c1cc(C/C=C/C(N)CS)ccc1-c1ccccc1)C(=O)O (stereo partly shown) here?
Result: bin B

Request: Any idea which band CSCC[C@H](NC(=O)C(/C=C/[C@@H](/C=C/C(N)CS)C(C)C)C(C)C)C(=O)N(C)Cc1ccccn1 (stereo partly shown) is in?
Result: bin A

Request: Field: class (IC50) — entry: CCc1ccc(C/C=C/C(N)CS)cc1C(=O)N[C@@H](CCSC)C(=O)O (stereo partly shown)
Result: bin A

Request: Which class does CC(C)[C@@H](/C=C\C(Cc1ccccc1)C(=O)NC(CCC(N)=O)C(=O)O)/C=C/C(N)CS (stereo partly shown) fall in?
Result: bin A

Request: Lab log: CC(C)C(/C=C/[C@@H](/C=C/C(N)CS)C(C)C)C(=O)N[C@@H](CCS(C)(=O)=O)C(=O)O (stereo partly shown) — assign IC50 category
Result: bin A

Request: Exercise: read the entry C[C@H](/C=C/C(N)CS)/C=C/C(Cc1ccccc1)C(=O)N[C@@H](CCC(N)=O)C(=O)O (stereo partly shown) and state which class it falls under.
Result: bin B

Request: Returns: class label. Input: COC(=O)[C@H](CCS(C)(=O)=O)NC(=O)C(Cc1cccs1)N(C)C[C@@H](/C=C/C(N)CS)C(C)C (stereo partly shown)
Result: bin C

Request: # bin label for NC(/C=C/Cc1ccc(-c2ccsc2)c(C(=O)N[C@@H](Cc2cccs2)C(=O)O)c1)CS (stereo partly shown)
Result: bin A

Request: Given CSCC[C@H](NC(=O)C(/C=C/C(/C=C/CCS)C(C)C)Cc1ccccc1)C(=O)O (single isomer, unassigned) [PD112] , name the class its IC50 places it in.
Result: bin C

Request: Please report the category associated with CSCC[C@H](NC(=O)C(/C=C\[C@@H](/C=C/C(N)CS)C(C)C)Cc1ccccc1)C(=O)O (stereo partly shown) , nothing else.
Result: bin B

Request: Sort `COC(=O)[C@H](CCSC)NC(=O)c1cc(C/C=C/[C@@H](N)CS)ccc1-c1ccccc1` into one of the categories.
Result: bin B

Request: Sort into band: CSCCC(NC(=O)c1cc(CC=CC(N)CSSCC(N)C=CCc2ccc(-c3ccccc3)c(C(=O)NC(CCSC)C(=O)O)c2)ccc1-c1ccccc1)C(=O)O (stereo not shown)
Result: bin A

Request: Please let me know in which category the item COC(=O)[C@H](CCSC)NC(=O)c1cc(CCCC(N)CS)ccc1-c1ccsc1 (stereo partly shown) belongs.
Result: bin B

Request: Hey, which category is CC[C@H](C)[C@H](NC[C@@H](/C=C/C(N)CS)C(C)C)C(=O)N[C@@H](CCSC)C(=O)OC (stereo partly shown) in, do you know?
Result: bin B

Request: Input CSCC[C@H](NC(=O)C(/C=C/[C@@H](/C=C/C(N)CS)C(C)C)C(C)C)C(=O)N1CCOCC1 (stereo partly shown) ; output its category
Result: bin C

Request: // bin(item) where item = COC(=O)C(CCSC)NC(=O)C(Cc1ccccc1)OCC(C=CC(N)CSSCC(N)C=CC(COC(Cc1ccccc1)C(=O)NC(CCSC)C(=O)OC)C(C)C)C(C)C (stereo not shown)
Result: bin C

Request: Kindly state the category for this compound: CCOC(=O)C(CCSC)NC(=O)C(C=CC(C=CC(N)CS)Cc1ccccc1)C(C)C (stereo not shown)
Result: bin C

Request: Where would CC[C@H](C)[C@H](NC[C@@H](/C=C/C(N)CS)C(C)C)C(=O)N[C@@H](CCSC)C(=O)O (stereo partly shown) land among the classes by reported IC50?
Result: bin A

Request: Sort into band: CSCC[C@H](NC(=O)C(Cc1ccccc1)OC[C@@H](/C=C/C(N)CS)C(C)C)C(=O)O (stereo partly shown)
Result: bin A

Request: Determine which band this compound sits in: CSCC[C@H](NC(=O)c1cc(C/C=C/C(N)CS)ccc1-c1ccccc1)C(=O)O (stereo partly shown)
Result: bin A

Request: Could you place `COc1ccc(-c2ccc(C/C=C/[C@@H](N)CS)cc2C(=O)N[C@@H](CCSC)C(=O)O)cc1` in its proper category? Many thanks.
Result: bin B

Request: Bin this entry: COC(=O)[C@H](CCSC)N(C)C(=O)C(/C=C\[C@@H](/C=C/C(N)CS)C(C)C)Cc1ccccc1 (stereo partly shown)
Result: bin B

Request: Which class does CC(C)C(/C=C/[C@@H](/C=C/C(N)CS)C(C)C)C(=O)N[C@H]1CCOC1=O (stereo partly shown) fall in?
Result: bin C

Request: Sort COC(=O)[C@H](Cc1cccs1)NC(=O)c1cc(C/C=C/C(N)CS)ccc1-c1ccsc1 (stereo partly shown) into one of the categories.
Result: bin C

----------
System: H-ras farnesylation in H-ras (61L) transformed NIH3T3 fibroblasts
Assay: Inhibition of H-ras farnesylation in whole cells (Western blot)
Format: cell-based, mouse
Details: Mus musculus, NIH3T3, 24 h, Table 2
Could you please report measured pIC50 for the items listed next?
Recall that pIC50 is obtained by taking minus log10 of the concentration measured in molar.

Request: Param item = CSCC[C@H](NC(=O)c1cc(C/C=C/C(N)CS)ccc1-c1cccc2ccccc12)C(=O)O (some centres unmarked) [PM082] ; retrieve measured pIC50.
Result: 4.68

Request: Fill blank: measured pIC50 of the compound CSCC[C@H](NC(=O)C(Cc1cccs1)NC[C@@H](/C=C/C(N)CS)C(C)C)C(=O)O (some centres unmarked) [PA031] is ____.
Result: 6.00

Request: If you can, please state the reported pIC50 value of CSCC[C@H](NC(=O)C(Cc1ccccc1)OC[C@@H](/C=C/C(N)CS)C(C)C)C(=O)O (some centres unmarked) [PE021] .
Result: 6.55

Request: # pIC50 lookup, item CSCC[C@H](NC(=O)c1cc(C/C=C\C(N)CS)ccc1-c1ccccc1)C(=O)O (some centres unmarked) [PM101]
Result: 4.84

Request: Look at this compound and give its reported pIC50. CC(C)C(/C=C/[C@@H](/C=C/C(N)CS)C(C)C)C(=O)N[C@@H](CO)C(=O)O (some centres unmarked) [PD202]
Result: 5.71

Request: Entry CSCC[C@H](NC(=O)C(/C=C/C(/C=C/CCS)C(C)C)Cc1ccccc1)C(=O)O (some centres unmarked) [PD162] : reported pIC50 = ?
Result: 3.49

Request: # get_value(readout='pIC50', item= CSCCC(NC(=O)C(C=CC(C=CC(N)CSSCC(N)C=CC(C=CC(Cc1ccccc1)C(=O)NC(CCSC)C(=O)O)C(C)C)C(C)C)Cc1ccccc1)C(=O)O (centres unmarked) [PD212] )
Result: 6.96

Request: Which pIC50 is listed for COC(=O)[C@H](CCSC)NC(=O)C(Cc1ccccc1)SC[C@@H](/C=C/C(N)CS)C(C)C (some centres unmarked) [PT011] ?
Result: 7.64

Request: Sample COC(=O)[C@H](CCSC)NC(=O)c1cc(C/C=C/[C@@H](N)CS)ccc1-c1ccccc1 [PM041] — what was its pIC50?
Result: 5.64

Request: What does the data say about its pIC50? Entry: CSCC[C@H](NC(=O)C(/C=C/[C@@H](/C=C/C(N)CS)C(C)C)C(C)C)C(=O)NCc1ccccn1 (some centres unmarked) [PD192]
Result: 6.74

Request: Which measured pIC50 value corresponds to COC(=O)C(CCSC)NC(=O)C(/C=C\[C@@H](/C=C/C(N)CS)C(C)C)Cc1ccccc1 (some centres unmarked) [PD371] ?
Result: 7.05

Request: Recorded pIC50 of CSCC[C@H](NC(=O)C(/C=C/[C@@H](/C=C/C(N)CS)C(C)C)C(C)C)C(=O)O (some centres unmarked) [PD341] , please.
Result: 6.54

Request: Consider the compound shown here: CSCC[C@H](NC(=O)C(/C=C/[C@H](C)/C=C/C(N)CS)Cc1ccccc1)C(=O)O (some centres unmarked) [PD441] What is its recorded pIC50?
Result: 5.38

Request: Value lookup for pIC50; key = COC(=O)[C@H](CCS(C)(=O)=O)NC(=O)c1cc(C/C=C/C(N)CS)ccc1-c1ccsc1 (some centres unmarked) [PM202]
Result: 5.92

Request: Query (compound): NC(=O)CC[C@H](NC(=O)c1cc(C/C=C/C(N)CS)ccc1-c1ccccc1)C(=O)O (some centres unmarked) [PM051] ; field requested: pIC50
Result: 4.63

Request: Bench note: what pIC50 did CC(C)COC(=O)[C@H](CCS(C)(=O)=O)NC(=O)c1cc(C/C=C/[C@@H](N)CS)ccc1-c1ccsc1 [PM072] show?
Result: 5.62

Request: Bench note: what pIC50 did COC(=O)[C@H](Cc1cccs1)NC(=O)c1cc(C/C=C/C(N)CS)ccc1-c1ccsc1 (some centres unmarked) [PM092] show?
Result: 5.57

Request: Quick one: pIC50 for CSCC[C@H](NC(=O)C(Cc1cccs1)N(C)C[C@@H](/C=C/C(N)CS)C(C)C)C(=O)O (some centres unmarked) [PA071] ?
Result: 5.51

Request: Consider the compound CSCC[C@H](NC(=O)C(/C=C/[C@@H](/C=C/C(N)CS)Cc1ccccc1)C(C)C)C(=O)O (some centres unmarked) [PD391] and give its measured pIC50.
Result: 4.79

Request: Record request: pIC50 value, item COC(=O)[C@H](CCSC)NC(=O)C(NC[C@@H](/C=C/C(N)CS)C(C)C)C(C)C (some centres unmarked) [PA101]
Result: 6.62

Request: What value of measured pIC50 is listed for COC(=O)[C@H](CCSC)NC(=O)C(/C=C/[C@@H](/C=C/C(N)CS)C(C)C)C(C)C (some centres unmarked) [PD411] ?
Result: 6.66

Request: Request the reported pIC50 associated with CSCC[C@H](NC(=O)c1cccc(C/C=C/C(N)CS)c1)C(=O)O (some centres unmarked) [PM102]
Result: 4.59

Request: Please look up its pIC50: CSCC[C@H](NC(=O)C(/C=C/[C@@H](/C=C/C(N)CS)C(C)C)C(C)C)C(N)=O (some centres unmarked) [PD042]
Result: 5.71

Request: Quick check: pIC50 of CCOC(=O)[C@H](CCSC)NC(=O)c1cc(C/C=C/C(N)CS)ccc1-c1ccccc1 (some centres unmarked) [PM151] ?
Result: 5.54

Request: I'd like to know its pIC50. The compound in question is CCOC(=O)C(CCSC)NC(=O)C(C=CC(C=CC(N)CS)Cc1ccccc1)C(C)C (centres unmarked) [PD421]
Result: 5.72

Request: Param item = C=Cc1ccc(C/C=C/C(N)CS)cc1C(=O)N[C@@H](CCSC)C(=O)O (some centres unmarked) [PM012] ; retrieve measured pIC50.
Result: 5.57

Request: Suppose we examine the compound CSCC[C@H](NC(=O)C(/C=C/[C@@H](/C=C/C(N)CS)C(C)C)C(C)C)C(=O)N(C)Cc1ccccn1 (some centres unmarked) [PD072] ; what pIC50 value has been reported?
Result: 5.13

Request: Any idea what pIC50 was measured for CC(C)C(/C=C/[C@@H](/C=C/C(N)CS)C(C)C)C(=O)N[C@@H](CCS(C)(=O)=O)C(=O)O (some centres unmarked) [PD172] ?
Result: 4.88
